# maps each entry to its % Potentiation @ 3.33 μM Avg
# experimental_target: human TMEM16A (TMEM16Aabc variant) (Homo sapiens, UniProt Q5XXA6, DEL476-501, form not given)
# Sequence (Q5XXA6 with tags, fused parts or gaps DEL476-501): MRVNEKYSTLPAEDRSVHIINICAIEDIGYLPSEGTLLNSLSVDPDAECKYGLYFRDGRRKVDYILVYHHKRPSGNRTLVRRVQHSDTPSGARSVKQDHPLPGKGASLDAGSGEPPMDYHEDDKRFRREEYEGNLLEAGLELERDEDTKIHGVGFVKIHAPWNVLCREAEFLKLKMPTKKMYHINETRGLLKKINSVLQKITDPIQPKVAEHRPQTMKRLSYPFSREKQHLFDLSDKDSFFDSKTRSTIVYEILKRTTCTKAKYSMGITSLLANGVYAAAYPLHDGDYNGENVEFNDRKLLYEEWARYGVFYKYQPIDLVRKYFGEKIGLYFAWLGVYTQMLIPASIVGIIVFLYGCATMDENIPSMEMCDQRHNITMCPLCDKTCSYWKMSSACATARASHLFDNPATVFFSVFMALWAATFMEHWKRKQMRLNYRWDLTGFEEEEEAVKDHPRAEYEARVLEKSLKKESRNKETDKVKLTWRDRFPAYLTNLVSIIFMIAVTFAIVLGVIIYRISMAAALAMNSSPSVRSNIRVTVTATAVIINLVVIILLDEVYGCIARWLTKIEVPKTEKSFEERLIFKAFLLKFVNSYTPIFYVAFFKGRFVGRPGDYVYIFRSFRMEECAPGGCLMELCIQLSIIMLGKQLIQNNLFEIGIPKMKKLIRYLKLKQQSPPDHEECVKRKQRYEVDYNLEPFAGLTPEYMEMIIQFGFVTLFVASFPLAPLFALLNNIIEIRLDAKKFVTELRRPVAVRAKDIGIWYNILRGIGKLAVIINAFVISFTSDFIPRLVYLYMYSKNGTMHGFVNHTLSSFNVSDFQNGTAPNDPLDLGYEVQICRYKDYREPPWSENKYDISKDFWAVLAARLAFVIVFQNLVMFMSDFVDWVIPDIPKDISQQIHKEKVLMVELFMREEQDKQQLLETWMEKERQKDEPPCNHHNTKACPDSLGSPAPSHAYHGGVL
# test_summary: Automated whole-cell patch clamp (Qpatch) TMEM16A potentiator assay in FRT cells stably expressing human TMEM16A
# Type: cell-based
# condition_description: 3.33 μM solution of test compound; percentage increase of baseline TMEM16A current
readout_label: % Potentiation @ 3.33 μM Avg (%)

# compound, readout_label, endpoint_result
rows = [
    ("CC(C)(C)NC(=O)c1cc(NC(=O)Cc2ccco2)ccn1", "% Potentiation @ 3.33 μM Avg", 57),
    ("CC(C)(C#N)NC(=O)c1cc(NC(=O)c2cnc(C3CC3)nc2)ccn1", "% Potentiation @ 3.33 μM Avg", 35),
    ("N#CC1(NC(=O)c2cc(NC(=O)Cc3cc(F)ccc3Cl)ccn2)CC1", "% Potentiation @ 3.33 μM Avg", 87),
    ("CC(C)(C)NC(=O)c1cc(NC(=O)Cc2cccc(F)c2)ccn1", "% Potentiation @ 3.33 μM Avg", 126),
    ("CC(C)(C)NC(=O)c1cc(NC(=O)Cc2cccs2)ccn1", "% Potentiation @ 3.33 μM Avg", 78),
    ("O=C(Cc1cc(Cl)ccc1O)Nc1ccnc(C(=O)N[C@@]2(CO)CCOC2)c1 (single isomer, unassigned) [Example 35a]", "% Potentiation @ 3.33 μM Avg", 137),
    ("CC(C)(C)NC(=O)c1cc(NC(=O)NCc2ccc(Cl)cc2)ccn1", "% Potentiation @ 3.33 μM Avg", 97),
    ("CC(C)(C#N)NC(=O)c1cc(NC(=O)c2ccc3c(c2)OCC(=O)N3)ccn1", "% Potentiation @ 3.33 μM Avg", 8),
]

###

# experimental_target: human TMEM16A (TMEM16Aabc variant) (Homo sapiens, UniProt Q5XXA6, DEL476-501, form not given)
# test_summary: Automated whole-cell patch clamp (Qpatch) TMEM16A potentiator assay in FRT cells stably expressing human TMEM16A
# condition_description: calculated EC50, Qpatch TMEM16A current at +70 mV
pEC50: −log10 of the molar value.
readout_label: pEC50

# compound, readout_label, endpoint_result
rows = [
    ("CC(C)(C)NC(=O)c1cc(NC(=O)Cc2ccc3ncccc3c2)ccn1 [Example 5.29]", "pEC50", 6.07),
    ("CC(C)C(C)(C)NC(=O)c1cccc(NC(=O)Cc2cc(Cl)ccc2O)c1 [Example 7.5]", "pEC50", 6.55),
    ("N#CC1(NC(=O)c2cc(NC(=O)Cc3cc(F)ccc3O)ccn2)CCOCC1 [Example 48.1]", "pEC50", 6.38),
    ("CC(C)(C)OC(=O)N1C[C@@H]2[C@H](C1)[C@H]2NC(=O)c1cc(NC(=O)Cc2cc(Cl)ccc2O)ccn1 [Example 8.3]", "pEC50", 6.64),
    ("CC(C)(C)NC(=O)c1cccc(NC(=O)CCc2ccccc2O)c1 [Example 2.5]", "pEC50", 5.87),
    ("O=C(Cc1cc(Cl)ccc1O)Nc1ccnc(C(=O)NCc2cccnc2)c1 [Example 32.2]", "pEC50", 6.47),
    ("CC(C)(C)NC(=O)c1cc(NC(=O)Cc2cccc(O)c2)ccn1 [Example 3.12b]", "pEC50", 6.47),
    ("CC(C)(C)NC(=O)c1cc(NC(=O)Cc2ccc(C(F)(F)F)cc2O)ccn1 [Example 3.7b]", "pEC50", 6.74),
    ("CC(C)(C)NC(=O)c1cc(NC(=O)Cc2cc(C(C)(C)C)ccc2O)ccn1 [Example 10]", "pEC50", 6.66),
    ("COCC(C)(CO)NC(=O)c1cc(NC(=O)Cc2cc(Cl)ccc2O)ccn1 (centres unmarked) [Example 73]", "pEC50", 6.51),
    ("C#CC(C)(C)NC(=O)c1cc(NC(=O)Cc2cccc(C(F)(F)F)c2)ccn1 [Example 5.37]", "pEC50", 6.82),
    ("C#CC(C)(C)NC(=O)c1cc(NC(=O)Cc2cc(F)ccc2F)ccn1 [Example 77]", "pEC50", 6.39),
    ("N#CC1(NC(=O)c2cc(NC(=O)Cc3cc(Cl)ccc3O)ccn2)CCOCC1 [Example 31]", "pEC50", 6.92),
    ("CC(C)(C#N)NC(=O)c1cc(NC(=O)Cc2cc(Cl)ccc2O)ccn1 [Example 34]", "pEC50", 7.05),
    ("CC(C)(C)NC(=O)c1cc(NC(=O)C2CCc3ccc(O)cc32)ccn1 (centres unmarked) [Example 3.9b]", "pEC50", 6.02),
    ("Cc1ccc(CC(=O)Nc2ccnc(C(=O)NC(C)(C)C)c2)cc1 [Example 5.11]", "pEC50", 6.77),
    ("CCC(C)NC(=O)c1cc(NC(=O)Cc2cc(Cl)ccc2O)ccn1 (centres unmarked) [Example 7.13]", "pEC50", 7.05),
    ("CC1(NC(=O)c2cc(NC(=O)Cc3cc(Cl)ccc3O)ccn2)CCOCC1 [Example 7.9]", "pEC50", 6.64),
    ("CC(C)(C)NC(=O)c1cccc(NC(=O)Cc2c(O)ccc(F)c2F)c1 [Example 2.11]", "pEC50", 6.37),
    ("CC(C)(C)NC(=O)c1cc(NC(=O)Cc2ccc(Cl)cc2O)ccn1 [Example 3.6b]", "pEC50", 6.92),
    ("CC(C)(C)NC(=O)c1cc(NC(=O)Cc2c[nH]c3ccccc23)ccn1 [Example 5.6]", "pEC50", 6.82),
    ("CC(C)(C#N)NC(=O)c1cc(NC(=O)Cc2cc(F)ccc2O)ccn1 [Example 81]", "pEC50", 6.43),
    ("CC(C)(C)NC(=O)c1cc(NC(=O)Cc2ccc(F)cc2)ccn1 [Example 5.13]", "pEC50", 5.94),
    ("CC(C)(C)NC(=O)c1cc(NC(=O)NCc2ccccc2Cl)ccn1 [Example 64.5]", "pEC50", 6.35),
    ("O=C(Cc1cc(Cl)ccc1O)Nc1cccc(C(=O)NC2CCCCC2)c1 [Example 7.3]", "pEC50", 6.70),
    ("CC(C)NC(=O)c1cc(NC(=O)Cc2cc(Cl)ccc2O)ccn1 [Example 7.7]", "pEC50", 6.89),
    ("CC(C)(C)C(C)(C)NC(=O)c1cccc(NC(=O)Cc2cc(Cl)ccc2O)c1 [Example 7]", "pEC50", 6.19),
    ("CC(C)(C)NC(=O)c1cccc(NC(=O)Cc2cc(Cl)ccc2O)c1 [Example 2]", "pEC50", 6.57),
    ("C#CC(C)(C)NC(=O)c1cc(NC(=O)Cc2ccccc2Cl)ccn1 [Example 30.1]", "pEC50", 6.85),
    ("CC(C)(C)NC(=O)c1cc(NC(=O)Cc2c(O)c(Br)cc(Cl)c2Br)ccn1 [Example 3.11b]", "pEC50", 6.39),
    ("N#CC1(NC(=O)c2cc(NC(=O)Cc3ccccc3Cl)ccn2)CC1 [Example 30.7]", "pEC50", 6.47),
    ("N#CC1(NC(=O)c2cc(NC(=O)Cc3cc(Cl)ccc3O)ccn2)CCOC1 (centres unmarked) [Example 47]", "pEC50", 6.74),
    ("CC(C)(C)NC(=O)c1cc(NC(=O)NCc2ccccc2O)ccn1 [Example 65.2]", "pEC50", 6.32),
    ("C#CC(C)(C)NC(=O)c1cc(NC(=O)Cc2ccc(C(F)(F)F)cc2O)ccn1 [Example 78.1]", "pEC50", 7.30),
    ("CC(C)(CN1CCOCC1)NC(=O)c1cc(NC(=O)Cc2cc(Cl)ccc2O)ccn1 [Example 32.6]", "pEC50", 6.09),
]

###

# experimental_target: human TMEM16A (TMEM16Aabc variant) (Homo sapiens, UniProt Q5XXA6, DEL476-501, form not given)
# test_summary: Automated whole-cell patch clamp (Qpatch) TMEM16A potentiator assay in FRT cells stably expressing human TMEM16A
# Assay type: cell-based
# condition_description: 3.33 μM solution of test compound; percentage increase of baseline TMEM16A current

# molecule, % Potentiation @ 3.33 μM Avg [%]
rows = [
    ("COC(=O)CC1(NC(=O)c2cc(NC(=O)Cc3cc(Cl)ccc3O)ccn2)CCOCC1", 156),
    ("CC(C)(C)NC(=O)c1nccc(NC(=O)Cc2cc(Cl)ccc2O)c1F", 68),
    ("O=C(Cc1cc(Cl)ccc1O)Nc1ccnc(C(=O)Nc2ccccc2)c1", 85),
    ("CC(C)(C#N)NC(=O)c1cc(NC(=O)c2cccc(C(F)(F)F)n2)ccn1", 60),
    ("COc1ccc(CC(=O)Nc2cccc(C(=O)NC(C)(C)C)c2)c(O)c1", 100),
    ("CC(C)(C)NC(=O)c1cc(NC(=O)Cc2cc(F)ccc2Cl)ccn1", 91),
    ("O=C(O)CCCCCCCCCCCNC(=O)c1cc(NC(=O)Cc2cc(Cl)ccc2O)ccn1", 246),
    ("N#CC1(NC(=O)c2cccc(NC(=O)Cc3cc(Cl)ccc3O)c2)CCOC1 (centres unmarked)", 162),
    ("O=C(Cc1cc(Cl)ccc1O)Nc1ccnc(C(=O)N[C@@]2(CO)CCOC2)c1 (single isomer, unassigned) [Example 35b]", 190),
    ("CC(NCC(F)(F)F)c1ccc(O)c(CC(=O)Nc2ccnc(C(=O)NC(C)(C)C)c2)c1 (centres unmarked)", 158),
    ("C#CC(C)(C)NC(=O)c1cc(NC(=O)Cc2c[nH]nc2C(F)(F)F)ccn1", 44),
    ("N#CC1(NC(=O)c2cc(NC(=O)Cc3cc(Cl)ccc3O)ccn2)CCOC1 (centres unmarked)", 237),
    ("CC(C)(C)NC(=O)c1cccc(NC(=O)Cc2n[nH]c3ccccc23)c1", 79),
    ("CC(C#N)(CO)NC(=O)c1cc(NC(=O)Cc2cc(F)ccc2O)ccn1 (centres unmarked)", 108),
    ("C#CC(C)(C)NC(=O)c1cc(NC(=O)CN2CCOc3ccccc32)ccn1", 147),
    ("CC(C)(C)NC(=O)c1ccc(O)c(NC(=O)Cc2cc(Cl)ccc2O)c1", 58),
    ("CC(C)(C)NC(=O)c1cc(NC(=O)C2CCc3c(Cl)ccc(O)c32)ccn1 (single isomer, unassigned) [Example 57b]", 162),
]
